B1: LINE1-mini (parent)
chain: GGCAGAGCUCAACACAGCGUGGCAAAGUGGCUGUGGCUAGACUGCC

variants of: B1; assay: self-cleavage, relative activity (ratio to wild type); higher = more cleavage; in vitro, sequencing; the parent is a self-cleaving ribozyme
assay.metric: self-cleavage
Would you mind answering with just the numeric figure?

IN: May I ask what self-cleavage has been recorded for C13A U28C ?
OUT: 0.15

IN: Record: A14G A25G
OUT: 0.32

IN: Record: A12U A25G
OUT: 0.4

IN: Record: `G44A`
OUT: 0.44

IN: Record: C13G A41U
OUT: 0.17

IN: Record: C3A G17A
OUT: 0.16

IN: Record: A25C G27A
OUT: 0.55

IN: Record: U20A A41C
OUT: 0.05

IN: Record: G5U C15G
OUT: 0.09

IN: Record: U20C U38A
OUT: 0.19

IN: Record: A24U G35A
OUT: 0.12
